assay: Stability in mouse plasma; format: in vitro ADME
measured_parameter: half-life at 8.35 μM

The molecule identified as C[C@H](c1cccc2ccccc12)N1CCC(C(=O)NCc2cc(F)cc(NC(=O)N3CCN(C)CC3)c2)CC1 [Inhibitor 19] registered its half-life at 8.35 μM at > 2 h

---

assay: Metabolic stability in mouse liver microsomes; type: in vitro ADME
measured_parameter: half-life at 1 μM
Answer with the value and then the unit.

Given item `C[C@H](c1cccc2ccccc12)N1CCC(C(=O)NCc2cc(F)cc(NC(=O)N3CCN(C)CC3)c2)CC1` , the value recorded as its half-life at 1 μM is 28 min
